Where do these numbers come from? They come from ChEMBL document CHEMBL5241112.

tested on: MDA-MB-231; experiment: cells; details: Homo sapiens
assayMetric: IC50 (µM)
Just the number in µM, nothing appended.

COc1cc([C@@H]2c3cc4c(cc3[C@@H](O[C@@H]3O[C@@H]5CO[C@@H](C)O[C@H]5[C@H](O)[C@H]3O)[C@H]3COC(=O)[C@H]23)OCO4)cc(OC)c1O [ETOPOSIDE]
30.6

Then there is this compound:
Enquiry: So what does the record say about IC50 for N#CC1=C(N)Oc2[nH]c(=O)[nH]c(=O)c2C12c1cc(Br)ccc1-n1c2nc2ccccc2c1=O (configuration not stated) ?
Return: 10.9

###

Listing of entries alongside the reported IC50.
biological target: Alpha-glucosidase (Saccharomyces cerevisiae S288c, UniProt P53341+P38158+P07265); test: Inhibition of Saccharomyces cerevisiae alpha-glucosidase preincubated for 5 mins followed by PNP-GLUC substrate addition and measured after 20 mins by spectroscopic analysis; assay type: protein assay
Dear colleague, please return just the value in mM, with no unit written.

Enquiry: Could you tell me which IC50 is on file for O=C(C1=C(c2ccccc2O)Oc2[nH]c(=S)[nH]c(=O)c2C1c1ccc(Cl)cc1)N1CCCCC1 (stereo not given) ?
Return: 4.021

Enquiry: What value of measured IC50 is listed for COc1cc(C2C(C(=O)N3CCCCC3)=C(c3ccccc3O)Oc3[nH]c(=S)[nH]c(=O)c32)ccc1O (stereo not given) ?
Return: 4.862

Enquiry: Need IC50 of O=C(C1=C(c2ccccc2O)Oc2[nH]c(=S)[nH]c(=O)c2C1c1ccc(O)cc1)N1CCCCC1 (stereo not given) , thanks.
Return: 3.553

Enquiry: Could you tell me which IC50 is on file for COc1ccc(C2C(C(=O)N3CCCCC3)=C(c3ccccc3O)Oc3[nH]c(=S)[nH]c(=O)c32)cc1 (stereo not given) ?
Return: 5.223

Enquiry: Give the measured IC50 of O=C(C1=C(c2ccccc2O)Oc2[nH]c(=S)[nH]c(=O)c2C1c1ccccc1O)N1CCCCC1 (stereo not given) .
Return: 6.197

Enquiry: Suppose we examine the compound O=C(C1=C(c2ccccc2O)Oc2[nH]c(=S)[nH]c(=O)c2C1c1ccccc1)N1CCCCC1 (stereo not given) ; what IC50 value has been reported?
Return: 7.745

Enquiry: Please look up its IC50: Cc1ccc(C2C(C(=O)N3CCCCC3)=C(c3ccccc3O)Oc3[nH]c(=S)[nH]c(=O)c32)cc1 (stereo not given)
Return: 4

Enquiry: What IC50 value was documented for this compound, O=C(C1=C(c2ccccc2O)Oc2[nH]c(=S)[nH]c(=O)c2C1c1ccc(Br)cc1)N1CCCCC1 (stereo not given) ?
Return: 6.855

Enquiry: Recorded IC50 of O=C(C1=C(c2ccccc2O)Oc2[nH]c(=S)[nH]c(=O)c2C1c1ccc(F)cc1)N1CCCCC1 (stereo not given) , please.
Return: 4.101

Enquiry: Suppose we examine the compound O=C(C1=C(c2ccccc2O)Oc2[nH]c(=S)[nH]c(=O)c2C1c1cc2ccccc2cc1O)N1CCCCC1 (stereo not given) ; what IC50 value has been reported?
Return: 5.337
